Attribution: patent US20260176262A1

half-life values, listed per item
# assay overview: Pharmacokinetic experiment in mice
# condition label: male, ICR, mouse, plasma, po, 10 mg/kg
I'd appreciate it if you wrote the number followed by its unit.

Solved entries (count: 3):
>>> result("[2H]C([2H])([2H])OC[C@@]12CC[C@@H](CN(c3nc(OC[C@@]45CCCN4C[C@H](F)C5)nc4c(F)c(-c5cc(O)cc6ccc(F)c(C#C)c56)nc(OC)c34)C1)N2")
"6.4 h"
>>> result("[2H]C([2H])([2H])OC[C@]12CC[C@H](CN(c3nc(OC[C@@]45CCCN4C[C@H](F)C5)nc4c(F)c(-c5cc(O)cc6ccc(F)c(C#C)c56)nc(OCC)c34)C1)N2")
"6.2 h"
>>> result("C#Cc1c(F)ccc2cc(O)cc(-c3ncc4c(N5CC6CCC(C5)N6)nc(OC[C@@]56CCCN5C[C@H](F)C6)nc4c3F)c12 [Positive Compounds, reference compound]")
"1.6 h"

Given the compound C#Cc1c(F)ccc2cc(O)cc(-c3ncc4c(N5C[C@H]6CC[C@@](CCF)(C5)N6)nc(OC[C@@]56CCCN5C[C@H](F)C6)nc4c3F)c12 , what is its reported half-life?
7.4 h

Given the compound [2H]C([2H])([2H])C12CCC(CN(c3nc(OC[C@@]45CCCN4C[C@H](F)C5)nc4c(F)c(-c5cc(O)cc6ccc(F)c(C#C)c56)nc(OC)c34)C1)N2 (some centres unmarked) , what is its reported half-life?
9.2 h
